TARGET UNDER TEST: human α2δ-1 subunit of Cav2.2 calcium channel (Homo sapiens (Human), UniProt P54289)
Sequence (P54289 25-1103): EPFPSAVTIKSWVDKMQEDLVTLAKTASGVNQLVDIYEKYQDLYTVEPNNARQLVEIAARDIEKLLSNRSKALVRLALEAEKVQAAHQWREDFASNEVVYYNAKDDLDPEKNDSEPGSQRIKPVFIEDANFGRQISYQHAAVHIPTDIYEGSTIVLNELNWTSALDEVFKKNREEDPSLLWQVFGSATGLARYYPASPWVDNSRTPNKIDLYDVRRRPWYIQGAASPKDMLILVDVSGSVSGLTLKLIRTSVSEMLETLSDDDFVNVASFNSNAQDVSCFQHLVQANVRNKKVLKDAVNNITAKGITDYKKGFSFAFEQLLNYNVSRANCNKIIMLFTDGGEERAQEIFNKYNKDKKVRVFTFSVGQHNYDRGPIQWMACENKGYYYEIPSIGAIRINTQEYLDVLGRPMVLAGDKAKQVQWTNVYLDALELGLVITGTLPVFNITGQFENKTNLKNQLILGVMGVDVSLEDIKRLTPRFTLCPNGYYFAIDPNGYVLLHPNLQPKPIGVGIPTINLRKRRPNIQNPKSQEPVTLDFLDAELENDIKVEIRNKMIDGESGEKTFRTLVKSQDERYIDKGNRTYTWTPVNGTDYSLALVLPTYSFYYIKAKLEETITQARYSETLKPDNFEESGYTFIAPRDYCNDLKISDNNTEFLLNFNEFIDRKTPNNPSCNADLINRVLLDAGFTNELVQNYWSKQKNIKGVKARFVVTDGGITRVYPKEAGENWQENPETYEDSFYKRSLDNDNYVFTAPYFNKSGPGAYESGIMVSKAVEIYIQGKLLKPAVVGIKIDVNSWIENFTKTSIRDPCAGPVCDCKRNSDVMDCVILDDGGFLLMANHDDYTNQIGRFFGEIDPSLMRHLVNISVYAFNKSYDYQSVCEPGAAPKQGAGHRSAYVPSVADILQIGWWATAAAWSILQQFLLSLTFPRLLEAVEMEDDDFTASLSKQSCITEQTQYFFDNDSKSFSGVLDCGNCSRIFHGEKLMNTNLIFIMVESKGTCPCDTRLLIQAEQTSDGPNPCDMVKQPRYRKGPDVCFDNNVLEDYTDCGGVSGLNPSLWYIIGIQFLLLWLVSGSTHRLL
RUN DESCRIPTION: Binding assay to human α2δ-1 subunit of Cav2.2 calcium channel ([3H]-Gabapentin)
CONDITION PARAMETERS: Table 2, dual compounds, human α2δ-1 enriched membranes, read-out: Ki (nM) alpha2delta Hum
Description: Binding Assay to Human α2δ-1 Subunit of Cav2.2 Calcium Channel. Human α2δ-1 enriched membranes (2.5 μg) were incubated with 15 nM of radiolabeled [3H]-Gabapentin in assay buffer containing Hepes-KOH 10 mM, pH 7.4. NSB (non specific binding) was measured by adding 10 μM pregabalin. The binding of the test compound was measured at five different concentrations. […] Filter plates were dried at 60° C. for 1 h and 30 μl of scintillation cocktail were added to each well before radioactivity reading. […]
Reported Ki values follow for various molecules

The following molecules have reported results that may help.
- CNCCC(Oc1cccc2ccncc12)c1ccc(F)s1 (stereo not drawn) [Example 49]: 100 to 500 nM
- CNCCC(Oc1cccc2ncccc12)c1ccc(F)s1 (stereo not drawn) [Example 42]: < 100 nM
- CNCCC(Oc1cccc2cnccc12)c1ccc(F)s1 (stereo not drawn) [Example 45]: < 100 nM
- CNCC[C@@H](Oc1cccc2cnccc12)c1ccsc1 [Example 60]: 100 to 500 nM
- CNCC[C@H](Oc1cccc2ccncc12)c1ccsc1 [Example 69]: ≥ 3000 nM
- CNCC[C@@H](Oc1cccc2ncccc12)c1ccc(Cl)s1 [Example 79]: < 100 nM
- CNCCC(Oc1cccc2cnccc12)c1cccnc1 (stereo not drawn) [Example 17]: ≥ 3000 nM
- NCCC(Oc1cccc2cnccc12)c1cccs1 (stereo not drawn) [Example 44]: ≥ 3000 nM

Please find the next molecule below.
Please give the measured Ki for this molecule: CNCC[C@@H](Oc1cccc2ncccc12)c1ccc(F)s1 [Example 53]
< 100 nM

---

Reported Ki values follow for various molecules
TARGET UNDER TEST: human norepinephrine transporter (NET) (Homo sapiens (Human), UniProt P23975)
Sequence (P23975 whole entry): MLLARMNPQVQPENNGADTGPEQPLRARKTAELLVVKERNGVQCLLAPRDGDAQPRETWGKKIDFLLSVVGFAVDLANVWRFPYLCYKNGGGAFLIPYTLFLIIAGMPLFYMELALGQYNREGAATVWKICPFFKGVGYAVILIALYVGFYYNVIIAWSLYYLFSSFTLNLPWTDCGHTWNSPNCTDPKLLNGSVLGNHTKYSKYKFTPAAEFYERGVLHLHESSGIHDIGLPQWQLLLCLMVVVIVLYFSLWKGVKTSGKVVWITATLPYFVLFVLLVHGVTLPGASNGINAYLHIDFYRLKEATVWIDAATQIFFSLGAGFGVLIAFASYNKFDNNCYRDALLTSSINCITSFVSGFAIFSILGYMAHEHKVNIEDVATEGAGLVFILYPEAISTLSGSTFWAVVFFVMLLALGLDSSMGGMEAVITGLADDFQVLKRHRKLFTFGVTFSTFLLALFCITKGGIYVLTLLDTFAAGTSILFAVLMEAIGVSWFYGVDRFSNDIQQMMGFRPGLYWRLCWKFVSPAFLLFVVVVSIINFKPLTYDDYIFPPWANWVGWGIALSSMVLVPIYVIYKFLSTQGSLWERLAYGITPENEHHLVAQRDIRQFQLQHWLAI
RUN DESCRIPTION: Binding assay to human norepinephrine transporter (NET) ([3H]-Nisoxetin)
CONDITION PARAMETERS: Table 2, dual compounds, human NET enriched membranes, read-out: Ki (nM) NET Hum

Lab note: need Ki with human norepinephrine transporter (NET) (Homo sapiens (Human), UniProt P23975) for entry "CNCC[C@@H](Oc1cccc2ccncc12)c1ccc(F)s1" , please look it up.
100 to 500 nM

---

TARGET UNDER TEST: human α2δ-1 subunit of Cav2.2 calcium channel (Homo sapiens (Human), UniProt P54289)
RUN DESCRIPTION: Binding assay to human α2δ-1 subunit of Cav2.2 calcium channel ([3H]-Gabapentin)
CONDITION PARAMETERS: Table 2, dual compounds, human α2δ-1 enriched membranes, read-out: Ki (nM) alpha2delta Hum
Reported Ki values follow for various compounds

• CNCCC(Oc1ccc2ccncc2c1)c1cccs1 (stereo not shown) = ≥ 3000 nM
• CNCCC(Oc1ccc2cnccc2c1)c1cccs1 (stereo not shown) = 500 to 3000 nM
• CNCC[C@@H](Oc1cccc2cnccc12)c1ccc(F)s1 = < 100 nM

Lab note: need Ki with human α2δ-1 subunit of Cav2.2 calcium channel (Homo sapiens (Human), UniProt P54289) for entry "CNCC[C@H](Oc1cccc2ccncc12)c1sccc1F" , please look it up.
≥ 3000 nM

Quick one: "CNCC[C@H](Oc1cccc2c(C)nccc12)c1cccs1"
≥ 3000 nM

Quick one: "CNCC[C@@H](Oc1cccc2ccnc(C)c12)c1cccs1"
< 100 nM

Quick one: "CNCC[C@H](Oc1cccc2cnccc12)c1ccsc1"
≥ 3000 nM

Quick one: "CNCC[C@@H](Oc1cccc2ccncc12)c1sccc1F"
100 to 500 nM

Quick one: CNCCC(Oc1cccc2cnccc12)c1nccs1 (stereo not shown)
500 to 3000 nM

Quick one: "CNCC[C@H](Oc1cccc2ncccc12)c1ccc(Cl)s1"
500 to 3000 nM

Data origin: patent US10941138B2
